Some compounds, each annotated with its measured % bound, C-RAF259 (11mer), 1h.
TESTED_TARGET: 14-3-3σ/C-RAF259 (Homo sapiens, UniProt P31947)
Sequence (P31947 whole entry, other chains not shown): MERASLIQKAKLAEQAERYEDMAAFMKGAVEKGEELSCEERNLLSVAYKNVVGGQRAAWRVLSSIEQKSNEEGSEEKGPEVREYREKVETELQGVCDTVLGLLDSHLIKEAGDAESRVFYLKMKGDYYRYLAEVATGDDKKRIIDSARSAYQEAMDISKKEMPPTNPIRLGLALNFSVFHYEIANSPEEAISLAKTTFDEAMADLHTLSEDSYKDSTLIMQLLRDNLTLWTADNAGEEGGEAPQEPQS
TEST_NAME: Intact mass spectrometry assay with C-RAF259 phospho-peptide
Assay type: binding
Parameters: full-length for mass spectrometry and fluorescence anisotropy assays; made in house; host or cells: E. coli Rosetta 2(DE3)pLysS (14-3-3σ); peptides from Elim Biopharmaceuticals
STUDY_CONDITIONS: 1 μM compound, 100 nM 14-3-3σ, 18 µM peptide, 1 h
OBSERVABLE: % bound, C-RAF259 (11mer), 1h (%)

{"COMPOUND": "O=C(CCl)N1CC2(CC(NS(=O)(=O)c3ccc(Br)c(F)c3)C2)C1", "RESULT_VALUE": 27.5}
{"COMPOUND": "O=C(CCl)NCC1CCN(S(=O)(=O)c2ccc(OC(F)(F)F)cc2)CC1", "RESULT_VALUE": 20.5}
{"COMPOUND": "O=C(CCl)NCC1CCN(S(=O)(=O)c2ccc(F)cc2)CC1", "RESULT_VALUE": 6.9}
{"COMPOUND": "O=C(CCl)NCC1CCN(S(=O)(=O)c2ccccc2)CC1", "RESULT_VALUE": 4.7}
{"COMPOUND": "O=C(CCl)N1CC2(CCN(S(=O)(=O)c3ccc(Br)c(F)c3)CC2(F)F)C1", "RESULT_VALUE": 25}
{"COMPOUND": "O=C(CCl)NCC1CCN(S(=O)(=O)c2ccc(F)c(F)c2)CC1", "RESULT_VALUE": 4.3}
{"COMPOUND": "O=C(CCl)NCC1CCN(S(=O)(=O)c2ccc3c(c2)OCO3)CC1", "RESULT_VALUE": 4.3}
{"COMPOUND": "C=C(F)C(=O)N1CC2(CCN(S(=O)(=O)c3ccc(Br)c(F)c3)CC2(F)F)C1", "RESULT_VALUE": 0}
{"COMPOUND": "O=C(CCl)NCC1CCN(S(=O)(=O)c2ccc(F)cc2F)CC1", "RESULT_VALUE": 6.9}
{"COMPOUND": "O=C(C(Cl)Cl)N1CC2(CCN(S(=O)(=O)c3ccc(Br)c(F)c3)CC2(F)F)C1", "RESULT_VALUE": 0}
{"COMPOUND": "COc1ccc(S(=O)(=O)N2CCC(CNC(=O)CCl)CC2)cc1F", "RESULT_VALUE": 7.7}
{"COMPOUND": "O=C(CCl)NCC1CCN(S(=O)(=O)Cc2ccccc2)CC1", "RESULT_VALUE": 0.9}
{"COMPOUND": "CC1(CNC(=O)CCl)CCN(S(=O)(=O)c2ccc(Br)c(F)c2)CC1", "RESULT_VALUE": 25.8}
{"COMPOUND": "O=C(CCl)N1CC2CCC1CC2NS(=O)(=O)c1ccc(Br)c(F)c1 (centres unmarked)", "RESULT_VALUE": 37.1}
{"COMPOUND": "O=C(CCl)N1CC2(CCN(S(=O)(=O)c3ccc(Br)c(F)c3)CC2)C1", "RESULT_VALUE": 11.1}
{"COMPOUND": "O=C(CCl)NCC1CCN(S(=O)(=O)c2ccccc2F)CC1", "RESULT_VALUE": 3.3}
{"COMPOUND": "O=C(CCl)NCC1CCN(S(=O)(=O)c2cc(F)c(Br)c(F)c2)CC1", "RESULT_VALUE": 35.9}
{"COMPOUND": "O=C(CCl)NCC1CCN(S(=O)(=O)c2cccc(F)c2)CC1", "RESULT_VALUE": 3.3}
{"COMPOUND": "O=C(CCl)N1CC2CC1CN2S(=O)(=O)c1ccc(Br)c(F)c1 (centres unmarked)", "RESULT_VALUE": 16.5}
{"COMPOUND": "O=C(CCl)NCC1CCN(S(=O)(=O)C2CCC3(CC2)CC3(F)F)CC1 (centres unmarked)", "RESULT_VALUE": 0.5}
{"COMPOUND": "O=C(CCl)NCC1CCN(S(=O)(=O)c2ccc(Cl)nc2)CC1", "RESULT_VALUE": 4.7}
{"COMPOUND": "O=C(CCl)NCCCC1CCN(S(=O)(=O)c2ccc(Cl)cc2)CC1", "RESULT_VALUE": 0.9}
{"COMPOUND": "O=C(CCl)NCC1CCN(S(=O)(=O)c2cc(F)c(Br)cc2F)CC1", "RESULT_VALUE": 39.3}
{"COMPOUND": "Cc1ccc(S(=O)(=O)N2CCC(CNC(=O)CCl)CC2)cc1", "RESULT_VALUE": 7.3}
{"COMPOUND": "O=C(CCl)NCC1CCN(S(=O)(=O)c2cccc(C(F)(F)F)c2)CC1", "RESULT_VALUE": 1.9}
{"COMPOUND": "O=C(CCl)NC1CC2(CCN(S(=O)(=O)c3ccc(Br)c(F)c3)CC2)C1", "RESULT_VALUE": 6.1}
{"COMPOUND": "O=C(CCl)NCC1CCN(S(=O)(=O)Cc2ccc(F)cc2)CC1", "RESULT_VALUE": 1.5}
{"COMPOUND": "O=C(CCl)NCc1ccc(NS(=O)(=O)c2ccc(Br)c(F)c2)cc1", "RESULT_VALUE": 1.9}
{"COMPOUND": "COc1ccc(S(=O)(=O)N2CCC(CNC(=O)CCl)CC2)cc1", "RESULT_VALUE": 10.6}
{"COMPOUND": "N#Cc1ccc(S(=O)(=O)N2CCC(CNC(=O)CCl)CC2)cc1", "RESULT_VALUE": 4.7}
{"COMPOUND": "O=C(CCl)NCC1CCN(S(=O)(=O)c2ccc(Br)cc2F)CC1", "RESULT_VALUE": 20.6}
{"COMPOUND": "O=C(CCl)N1CC[C@]2(CCN(S(=O)(=O)c3ccc(Br)c(F)c3)C2)C1", "RESULT_VALUE": 43}
{"COMPOUND": "O=C(CCl)NCC1CCN(S(=O)(=O)C2CC3(C2)CC(F)(F)C3)CC1", "RESULT_VALUE": 0}
{"COMPOUND": "O=C(CCl)N1CC2(CC(NS(=O)(=O)c3ccc(Br)c(F)c3)CO2)C1 (centres unmarked)", "RESULT_VALUE": 15}
{"COMPOUND": "O=C(CCl)NCC1CCN(S(=O)(=O)Cc2ccc(Cl)cc2)CC1", "RESULT_VALUE": 0}
